B1: Chp1 (in yeast cells expressing V5-eEF1A) [yeast (S. cerevisiae)] / WT eEF1A (V5-TEF2) [yeast (S. cerevisiae)] (parent complex)
chain 1: MSTFNAETADNLEDIEKQFAVVAVEQAETYWKLLTSVPGSKLRLTKFDDEIYENFMERFPEYKDVERVKKFTEEELKTKEAKERWRKFFTIFEKKIEDYNFGTLLRTDASAEYGQFTTCFVVRLQFYAFEIARNKHGLNDWIVGQK
chain 2: MGKEKSHINVVVIGHVDSGKSTTTGHLIYKCGGIDKRTIEKFEKEAAELGKGSFKYAWVLDKLKAERERGITIDIALWKFETPKYQVTVIDAPGHRDFIKNMITGTSQADCAILIIAGGVGEFEAGISKDGQTREHALLAFTLGVRQLIVAVNKMDSVKWDESRFQEIVKETSNFIKKVGYNPKTVPFVPISGWNGDNMIEATTNAPWYKGWEKETKAGVVKGKTLLEAIDAIEQPSRPTDKPLRLPLQDVYKIGGIGTVPVGRVETGVIKPGMVVTFAPAGVTTEVKSVEMHHEQLEQGVPGDNVGFNVKNVSVKEIRRGNVCGDAKNDPPKGCASFNATVIVLNHPGQISAGYSPVLDCHTAHIACRFDELLEKNDRRSGKKLEDHPKFLKSGDAALVKFVPSKPMCVEAFSEYPPLGRFAVRDMRQTVAVGVIKSVDKTEKAAKVTKAAQKAAKK

Variants of: B1
Method summary: co-IP (IP α-V5, blot α-Chp1), quantified; parent: 1; read off a plot
Outcome measure: ratio to parent

Sample answers from the record:
> print(dat)
   variant.annotation  reported
1       chain 2 P331L      ~2.4
2        chain 2 G70S     ~0.25
3       chain 2 G382R      ~0.5
4       chain 2 R421C      ~1.2
5       chain 2 R264W      ~0.3

Dear colleague, could you send me ratio to parent for each of the items below? Thanks.
1. chain 2 A125E
2. chain 2 D91N

a:
1: ~0.5; 2: ~0.45
